Assayed Target: Renin (Homo sapiens)
Sequence (P00797 whole entry): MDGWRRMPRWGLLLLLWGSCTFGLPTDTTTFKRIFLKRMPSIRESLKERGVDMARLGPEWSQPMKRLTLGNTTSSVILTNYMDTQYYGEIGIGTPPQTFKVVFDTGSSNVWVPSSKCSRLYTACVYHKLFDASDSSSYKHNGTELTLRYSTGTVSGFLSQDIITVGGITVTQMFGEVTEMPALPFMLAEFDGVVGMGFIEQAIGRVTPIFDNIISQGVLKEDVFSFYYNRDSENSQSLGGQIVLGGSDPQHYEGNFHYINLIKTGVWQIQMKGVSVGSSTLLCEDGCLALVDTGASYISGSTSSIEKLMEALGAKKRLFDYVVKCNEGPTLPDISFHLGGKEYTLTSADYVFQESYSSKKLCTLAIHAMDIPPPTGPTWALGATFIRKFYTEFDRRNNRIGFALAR
Assay Method Text: In vitro inhibitory activity against human renal renin using radioimmunoassay for angiotensin I production
pIC50: −log10 of the molar value.
Recorded Endpoint: pIC50

Solved entries:
| Molecule | pIC50 |
| --- | --- |
| C=C(C[C@H](O)[C@H](CC1CCCCC1)NC(=O)C(CCCCCC)CC(O)[C@H](Cc1ccccc1)NC(=O)OC(C)(C)C)C(=O)NCC(C)C (stereo partly drawn) | 7.15 |
| C=C(C[C@H](O)[C@H](CC1CCCCC1)NC(=O)C(C)NC(=O)[C@H](Cc1ccccc1)NC(=O)OC(C)(C)C)C(=O)NCC(C)C (stereo partly drawn) | 8.00 |

I = C=C(C[C@H](O)[C@H](CC1CCCCC1)NC(=O)[C@H](C)C[C@H](O)[C@H](Cc1ccccc1)NC(=O)OC(C)(C)C)C(=O)NCC(C)C
II = C=CCCCC(C[C@@H](O)[C@H](Cc1ccccc1)NC(=O)OC(C)(C)C)C(=O)N[C@@H](CC1CCCCC1)[C@@H](O)[C@@H](CO)CC(C)C (stereo partly drawn)
III = C=CCCC[C@H](C[C@@H](O)[C@H](Cc1ccccc1)NC(=O)OC(C)(C)C)C(=O)N[C@@H](CC1CCCCC1)[C@@H](O)CC(=C)C(=O)NCC(C)C
IV = C=C(C[C@H](O)[C@H](CC1CCCCC1)NC(=O)C(CCCC)NC(=O)[C@H](Cc1ccccc1)NC(=O)OC(C)(C)C)C(=O)NCC(C)C (mixture of isomers)
V = C=C(C[C@H](O)[C@H](CC1CCCCC1)NC(=O)[C@H](C)C[C@@H](O)[C@H](Cc1ccccc1)NC(=O)OC(C)(C)C)C(=O)NCC(C)C
Prompt: Place the items in sequence of falling pIC50. Answer with the labels in sequence, matching the requested order.
Response: III, IV, II, V, I
(III: 9.00, IV: 8.70, II: 7.92, V: 7.70, I: 5.52)
